Values were extracted from the supplement of paper PMC10567573.

B1: FOXJ1 (parent)
chain: SAIYKWITDNFCYFRHADPTWQNS

Variants of: B1
assay summary: protein stability index of a GFP-peptide fusion (GPS, HEK-293T) (PSI 1-6); higher = more stable;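 note: lentivirally expressed fusions sorted by FACS into six bins by GFP to DsRed ratio, PSI derived from sequencing read proportions per bin multiplied by bin number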
assay conditions: c terminus: a fixed tail appended
Threshold check on protein stability index: at or above 3 gives TRUE, strictly below gives FALSE.

Form field: protein stability index at least 3? Entry: `C12A` FALSE

Form field: protein stability index at least 3? Entry: `I3A` FALSE

Form field: protein stability index at least 3? Entry: `A2L` FALSE

Form field: protein stability index at least 3? Entry: `F14N` FALSE

Form field: protein stability index at least 3? Entry: `C12L` TRUE

Form field: protein stability index at least 3? Entry: `S1D` TRUE

Form field: protein stability index at least 3? Entry: `T8M` TRUE

Form field: protein stability index at least 3? Entry: `R15C` TRUE

Form field: protein stability index at least 3? Entry: `I7D` FALSE

Form field: protein stability index at least 3? Entry: `N23Q` TRUE

Form field: protein stability index at least 3? Entry: `S24P` TRUE

Form field: protein stability index at least 3? Entry: `T8H` TRUE

Form field: protein stability index at least 3? Entry: `S24F` TRUE

Form field: protein stability index at least 3? Entry: `A17Y` FALSE

Form field: protein stability index at least 3? Entry: `N23V` FALSE

Form field: protein stability index at least 3? Entry: `A17Q` FALSE

Form field: protein stability index at least 3? Entry: `K5D` TRUE

Form field: protein stability index at least 3? Entry: `W6A` FALSE

Form field: protein stability index at least 3? Entry: `P19I` TRUE

Form field: protein stability index at least 3? Entry: `N10W` FALSE

Form field: protein stability index at least 3? Entry: `T8R` FALSE

Form field: protein stability index at least 3? Entry: `T8F` TRUE

Form field: protein stability index at least 3? Entry: `Y13E` FALSE

Form field: protein stability index at least 3? Entry: `R15T` FALSE

Form field: protein stability index at least 3? Entry: `A2Q` FALSE

Form field: protein stability index at least 3? Entry: `W6H` FALSE

Form field: protein stability index at least 3? Entry: `I7T` FALSE

Form field: protein stability index at least 3? Entry: `Y13R` FALSE

Form field: protein stability index at least 3? Entry: `C12Y` TRUE

Form field: protein stability index at least 3? Entry: `H16I` FALSE

Form field: protein stability index at least 3? Entry: `H16A` FALSE

Form field: protein stability index at least 3? Entry: `A17N` TRUE

Form field: protein stability index at least 3? Entry: `R15M` FALSE

Form field: protein stability index at least 3? Entry: `P19C` FALSE

Form field: protein stability index at least 3? Entry: `K5G` TRUE

Form field: protein stability index at least 3? Entry: `W6F` FALSE

Form field: protein stability index at least 3? Entry: `I3Q` FALSE

Form field: protein stability index at least 3? Entry: `N10T` FALSE

Form field: protein stability index at least 3? Entry: `S1P` FALSE

Form field: protein stability index at least 3? Entry: `W21A` TRUE

Form field: protein stability index at least 3? Entry: `D9Q` FALSE

Form field: protein stability index at least 3? Entry: `I7A` FALSE

Form field: protein stability index at least 3? Entry: `K5C` FALSE

Form field: protein stability index at least 3? Entry: `Y4N` FALSE

Form field: protein stability index at least 3? Entry: `Q22F` TRUE

Form field: protein stability index at least 3? Entry: `T8G` FALSE

Form field: protein stability index at least 3? Entry: `F11C` FALSE

Form field: protein stability index at least 3? Entry: `A2R` FALSE

Form field: protein stability index at least 3? Entry: `S1Q` FALSE

Form field: protein stability index at least 3? Entry: `W6Y` TRUE

Form field: protein stability index at least 3? Entry: `H16K` FALSE

Form field: protein stability index at least 3? Entry: `I3T` FALSE

Form field: protein stability index at least 3? Entry: `T20F` FALSE

Form field: protein stability index at least 3? Entry: `N10I` FALSE

Form field: protein stability index at least 3? Entry: `T20W` TRUE

Form field: protein stability index at least 3? Entry: `S1G` TRUE

Form field: protein stability index at least 3? Entry: `K5S` TRUE

Form field: protein stability index at least 3? Entry: `P19T` TRUE

Form field: protein stability index at least 3? Entry: `A2Y` FALSE

Form field: protein stability index at least 3? Entry: `D18C` FALSE

Form field: protein stability index at least 3? Entry: `Y4S` FALSE

Form field: protein stability index at least 3? Entry: `W6K` FALSE

Form field: protein stability index at least 3? Entry: `I7F` FALSE

Form field: protein stability index at least 3? Entry: `I7Y` FALSE

Form field: protein stability index at least 3? Entry: `Q22W` FALSE

Form field: protein stability index at least 3? Entry: `C12R` FALSE

Form field: protein stability index at least 3? Entry: `Q22H` TRUE

Form field: protein stability index at least 3? Entry: `W6V` FALSE
